Taken from patent WO2015077660A1.

# Test system: porcine trypsin
# Construct: purchased
# protocol.description: Insulin digestion by trypsin in solution, buffer screening (Table 9)
# Format: biochemical
# details: 5%, 37°C, 18 h
Respond with Y for Peptide values of 500000 and above, N for values below.

Consider the following illustrative entries.
> print(dat)
     compound  qualitative.label
1  OCC(F)(F)F                  N
2          CO                  Y
3    OCC(O)CO                  N
4        CC#N                  Y

Now let's try a different one.
Exercise: Threshold query (Peptide >= 500000) on CC(C)O
Key: N
